Form field: inhibition at 5 µM (one value per entry).
tested on: ROS; assay: ROS labeling by cytometry after H2O2; format: cell-based; conditions: Homo sapiens, ARPE-19; 5 μM compound then 200 μM H2O2 for 2 h; read-out: B. ROS inhibition 5 μM - ARPE-19 cells

Record smiles: Cc1ccccc1Cn1nc(Nc2ccccc2)nc1N
inhibition at 5 µM: ≥ 50%
--
Record smiles: Nc1nc(Nc2ccccn2)nn1Cc1ccc([N+](=O)[O-])cc1
inhibition at 5 µM: ≥ 50%
--
Record smiles: COc1cccc(Cn2nc(N)nc2Nc2ccccc2)c1
inhibition at 5 µM: ≥ 50%
--
Record smiles: Nc1nc(Nc2ccc(Br)cc2)n(Cc2cccc(Br)c2)n1
inhibition at 5 µM: ≥ 50%
--
Record smiles: Nc1nc(Nc2ccccc2)n(Cc2c(F)cccc2F)n1
inhibition at 5 µM: ≥ 50%
--
Record smiles: Nc1nc(Nc2ccc(Cl)cc2)n(Cc2cccc(Br)c2)n1
inhibition at 5 µM: ≥ 50%
--
Record smiles: Nc1nc(Nc2cccnc2)nn1Cc1cccc(Br)c1
inhibition at 5 µM: < 50%
--
Record smiles: Nc1nc(Nc2ccc(Cl)c(Cl)c2)nn1Cc1cccc(Br)c1
inhibition at 5 µM: ≥ 50%
--
Record smiles: Nc1nc(Nc2ccccc2)nn1CC(=O)c1ccccc1
inhibition at 5 µM: < 50%
--
Record smiles: Nc1nc(Nc2ccccc2)n(Cc2cccc(C(F)(F)F)c2)n1
inhibition at 5 µM: ≥ 50%
--
Record smiles: Nc1nc(Nc2ccccn2)nn1Cc1c(F)cccc1F
inhibition at 5 µM: < 50%
--
Record smiles: Cc1ccc(Cn2nc(Nc3ccccn3)nc2N)cc1
inhibition at 5 µM: < 50%
--
Record smiles: Nc1nc(Nc2ccccn2)nn1Cc1cccc([N+](=O)[O-])c1
inhibition at 5 µM: < 50%
--
Record smiles: Nc1nc(Nc2ccccc2)nn1Cc1ccc(Cl)cc1
inhibition at 5 µM: ≥ 50%
--
Record smiles: Cc1ccc(Nc2nc(N)n(Cc3cccc(Br)c3)n2)cc1
inhibition at 5 µM: ≥ 50%
--
Record smiles: COC(=O)c1ccc(Nc2nc(N)n(Cc3cccc(Br)c3)n2)cc1
inhibition at 5 µM: ≥ 50%
--
Record smiles: Nc1nc(Nc2ccccn2)nn1Cc1ccccc1
inhibition at 5 µM: < 50%
--
Record smiles: Nc1nc(Nc2ccc(Cl)cc2)nn1Cc1cccc(Br)c1
inhibition at 5 µM: ≥ 50%
--
Record smiles: Nc1nc(Nc2ccccn2)nn1Cc1ccc(F)cc1F
inhibition at 5 µM: < 50%
--
Record smiles: Nc1nc(Nc2ccccc2)nn1Cc1cccc(C(F)(F)F)c1
inhibition at 5 µM: ≥ 50%
--
Record smiles: CC(C)c1ccc(Cn2nc(Nc3ccc(Cl)c(Cl)c3)nc2N)cc1
inhibition at 5 µM: ≥ 50%
--
Record smiles: Nc1nc(Nc2ccccn2)nn1Cc1ccc(Cl)cc1
inhibition at 5 µM: < 50%
--
Record smiles: Nc1nc(Nc2ccccc2)nn1Cc1cccc([N+](=O)[O-])c1
inhibition at 5 µM: ≥ 50%
--
Record smiles: Nc1nc(Nc2ccccn2)nn1CC(=O)c1cccc([N+](=O)[O-])c1
inhibition at 5 µM: < 50%
--
Record smiles: Cc1ccc(Cn2nc(Nc3ccccc3)nc2N)cc1
inhibition at 5 µM: ≥ 50%
--
Record smiles: Nc1nc(Nc2ccccc2)nn1Cc1ccc([N+](=O)[O-])cc1
inhibition at 5 µM: ≥ 50%
--
Record smiles: CC(C)c1ccc(Cn2nc(Nc3ccccc3)nc2N)cc1
inhibition at 5 µM: ≥ 50%
--
Record smiles: Nc1nc(Nc2ccccn2)nn1Cc1ccccc1[N+](=O)[O-]
inhibition at 5 µM: ≥ 50%
--
Record smiles: COc1cc(Cn2nc(Nc3ccccc3)nc2N)cc(OC)c1OC
inhibition at 5 µM: < 50%
--
Record smiles: Nc1nc(Nc2ccccc2)nn1Cc1ccccc1
inhibition at 5 µM: ≥ 50%
--
Record smiles: Nc1nc(Nc2ccccn2)nn1Cc1cccc(C(F)(F)F)c1
inhibition at 5 µM: < 50%
--
Record smiles: Nc1nc(Nc2ccccc2)nn1CCc1ccccc1
inhibition at 5 µM: < 50%
--
Record smiles: Nc1nc(Nc2ccccc2)nn1Cc1c(Cl)cccc1Cl
inhibition at 5 µM: ≥ 50%
--
Record smiles: N#Cc1ccc(Cn2nc(Nc3ccccn3)nc2N)cc1
inhibition at 5 µM: < 50%
--
Record smiles: Nc1nc(Nc2ccccc2)n(Cc2ccccc2)n1
inhibition at 5 µM: ≥ 50%
--
Record smiles: COc1cccc(Cn2nc(Nc3ccccc3)nc2N)c1
inhibition at 5 µM: ≥ 50%
--
Record smiles: COc1ccc(Nc2nc(N)n(Cc3cccc(Br)c3)n2)cc1
inhibition at 5 µM: < 50%
--
Record smiles: Nc1nc(Nc2ccccc2)nn1Cc1ccccc1[N+](=O)[O-]
inhibition at 5 µM: < 50%
--
Record smiles: Nc1nc(Nc2ccc(Br)cc2)nn1Cc1cccc(Br)c1
inhibition at 5 µM: ≥ 50%
--
Record smiles: Nc1nc(Nc2ccccc2)nn1Cc1cccc(Br)c1
inhibition at 5 µM: ≥ 50%
--
Record smiles: Cc1ccc(Nc2nc(N)nn2Cc2cccc(Br)c2)cc1
inhibition at 5 µM: ≥ 50%
--
Record smiles: Nc1nc(Nc2cccnc2)nn1Cc1ccccc1
inhibition at 5 µM: < 50%
--
Record smiles: Cc1ccccc1Cn1nc(Nc2ccccn2)nc1N
inhibition at 5 µM: ≥ 50%
--
Record smiles: Nc1nc(Nc2ccccn2)nn1Cc1c(Cl)cccc1Cl
inhibition at 5 µM: < 50%
